target: human DNA polymerase γ (Homo sapiens, UniProt P54098)
Sequence (P54098 whole entry): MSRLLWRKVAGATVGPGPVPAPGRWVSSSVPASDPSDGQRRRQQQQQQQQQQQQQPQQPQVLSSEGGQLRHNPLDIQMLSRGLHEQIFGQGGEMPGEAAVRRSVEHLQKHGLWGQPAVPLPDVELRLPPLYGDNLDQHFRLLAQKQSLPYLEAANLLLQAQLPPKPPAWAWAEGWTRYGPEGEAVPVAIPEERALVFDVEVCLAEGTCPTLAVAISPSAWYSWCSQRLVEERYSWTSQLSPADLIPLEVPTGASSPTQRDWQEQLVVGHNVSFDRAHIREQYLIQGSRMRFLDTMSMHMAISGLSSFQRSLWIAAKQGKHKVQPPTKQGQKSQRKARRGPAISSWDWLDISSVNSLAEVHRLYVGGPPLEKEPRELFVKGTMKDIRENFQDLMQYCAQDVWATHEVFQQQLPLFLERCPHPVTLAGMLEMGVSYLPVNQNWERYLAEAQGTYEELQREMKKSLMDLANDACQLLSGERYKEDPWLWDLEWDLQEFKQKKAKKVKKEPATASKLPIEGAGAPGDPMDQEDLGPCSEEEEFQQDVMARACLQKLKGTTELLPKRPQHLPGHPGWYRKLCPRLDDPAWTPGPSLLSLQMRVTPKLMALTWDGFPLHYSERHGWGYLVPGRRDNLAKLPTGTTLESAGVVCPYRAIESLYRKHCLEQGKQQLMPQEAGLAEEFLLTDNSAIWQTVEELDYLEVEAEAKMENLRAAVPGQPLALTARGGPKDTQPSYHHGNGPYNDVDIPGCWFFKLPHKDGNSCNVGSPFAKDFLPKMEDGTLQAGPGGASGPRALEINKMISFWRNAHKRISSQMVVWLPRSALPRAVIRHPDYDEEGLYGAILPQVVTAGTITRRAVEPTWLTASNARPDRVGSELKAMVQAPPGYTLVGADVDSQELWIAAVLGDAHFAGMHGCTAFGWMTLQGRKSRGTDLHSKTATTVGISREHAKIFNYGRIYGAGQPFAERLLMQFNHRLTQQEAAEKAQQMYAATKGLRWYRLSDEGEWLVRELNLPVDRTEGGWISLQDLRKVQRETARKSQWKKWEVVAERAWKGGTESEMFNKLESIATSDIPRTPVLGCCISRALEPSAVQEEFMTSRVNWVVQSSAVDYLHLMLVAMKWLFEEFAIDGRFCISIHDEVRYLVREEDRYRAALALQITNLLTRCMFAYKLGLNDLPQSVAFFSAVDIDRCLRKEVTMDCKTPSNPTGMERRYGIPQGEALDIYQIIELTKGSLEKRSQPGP
pIC50: −log10 of the molar value.
measurement.name: pIC50

Nc1nc(=O)n([C@@H]2O[C@](CCl)(COP(=O)(O)OP(=O)(O)OP(=O)(O)O)[C@@H](O)[C@@H]2F)cc1F 3.52 to 3.70
CC[C@]1(COP(=O)(O)OP(=O)(O)OP(=O)(O)O)O[C@@H](n2ccc(N)nc2=O)C[C@@H]1O < 3.52

In the following, a different molecule is considered.
Input: Sample Nc1ccn([C@@H]2O[C@](CCl)(COP(=O)(O)OP(=O)(O)OP(=O)(O)O)[C@@H](O)[C@@H]2F)c(=O)n1 — what was its pIC50?
Output: 3.52 to 3.70
